tested on: HL-60 cells; experiment: Toxicity assay of chemotherapeutic agents, HL-60 cells (PrestoBlue viability); format: cell-based, human; settings: Homo sapiens, HL-60, 120 h
Where a name gives a salt, the structure may show the parent alone.
measured_metric: IC50 (nM)
Express your answer in nM, writing the number without its unit.

Supply reported IC50 belonging to this compound: COc1cccc2c1C(=O)c1c(O)c3c(c(O)c1C2=O)C[C@@](O)(C(C)=O)C[C@@H]3O[C@H]1C[C@H](N)[C@H](O)[C@H](C)O1 [Daunorubicin-HCl]
15
